- target of assay: PIM1 (human) (UniProt P11309)
- Sequence (P11309 whole entry, looked up): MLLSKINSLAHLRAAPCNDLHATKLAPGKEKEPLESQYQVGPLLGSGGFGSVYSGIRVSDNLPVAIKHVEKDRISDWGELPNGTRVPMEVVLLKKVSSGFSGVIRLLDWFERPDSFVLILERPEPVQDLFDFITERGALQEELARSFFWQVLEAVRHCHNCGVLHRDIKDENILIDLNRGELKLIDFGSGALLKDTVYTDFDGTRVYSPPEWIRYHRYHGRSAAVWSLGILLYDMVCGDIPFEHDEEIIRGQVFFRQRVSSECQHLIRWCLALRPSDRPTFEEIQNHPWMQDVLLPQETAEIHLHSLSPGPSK
- assay overview: radiometric filter-binding kinase assay
- condition summary: compound 10.0 µM
test readout: residual activity (%)

> print(dat)
                                    compound                target.of.assay  test.result
 1  NC(=O)Nc1ccc2c(c1)/C(=C/c1cc(-c3cccnc3)c[nH]1)C(=O)N2  PIM1 (human) (UniProt P11309)            2
 2        Oc1ccc2ccccc2c1SSc1c(O)ccc2ccccc12  PIM1 (human) (UniProt P11309)           46
 3  CC(C)C[C@H](NC(=O)CNC(=O)c1cc(Cl)ccc1Cl)B1OC(=O)CC(CC(=O)O)(C(=O)O)O1 (stereo not given in full)  PIM1 (human) (UniProt P11309)           88
 4  C=CC(=O)N1CCC[C@@H](n2nc(-c3ccc(Oc4ccccc4)cc3)c3c(N)ncnc32)C1  PIM1 (human) (UniProt P11309)           81
 5  Cc1cc(SCc2sc(-c3ccc(C(F)(F)F)cc3)nc2C)ccc1OCC(=O)O  PIM1 (human) (UniProt P11309)           83
 6  O=C(Nc1cccnc1)c1cc(-c2ccnc(F)c2)ccc1OCc1ccccc1  PIM1 (human) (UniProt P11309)          109
 7  O=C(N[C@@H](COc1ccc2[nH]c(=O)[nH]c2c1)c1ccccc1)c1cccn(Cc2ccc(F)c(F)c2)c1=O  PIM1 (human) (UniProt P11309)           76
 8    CCn1c(-c2nonc2N)nc2cncc(CNC3CCNCC3)c21  PIM1 (human) (UniProt P11309)            7
 9                           CCCC(CCC)C(=O)O  PIM1 (human) (UniProt P11309)           98
10  O=C(O)c1ccc(-c2c[nH]c3ncc(-c4ccccc4)cc23)cc1C1CCCC1  PIM1 (human) (UniProt P11309)           26
11  FC(F)(F)c1ccc(-c2ccc(Oc3cncc4sc(-c5nn[nH]n5)cc34)cc2)cc1  PIM1 (human) (UniProt P11309)           17
12  Cc1ccc(-c2ccc3c(ccc4sc5c(c43)NC[C@@H](C)NC5=O)n2)cn1  PIM1 (human) (UniProt P11309)           17
13  COc1cc2ncn(-c3cc(OCc4ccccc4S(C)(=O)=O)c(C#N)s3)c2cc1OC  PIM1 (human) (UniProt P11309)           71
14  O=S(=O)(c1ccc(F)c2nonc12)N1CCN(c2ncc(C(F)(F)F)cc2Cl)CC1  PIM1 (human) (UniProt P11309)           88
15  O=C(O)c1cc(N=Nc2ccc(S(=O)(=O)Nc3ccccn3)cc2)ccc1O  PIM1 (human) (UniProt P11309)           44
16  COc1ccc2c(c1)c1c3c(c4c5ccccc5n(C)c4c1n2CC(O)CN(C)C)C(=O)NC3=O (stereo not given)  PIM1 (human) (UniProt P11309)            2
17  CCc1cncnc1N1CCN(Cc2nc3cc(C(F)(F)F)ccc3[nH]2)CC1  PIM1 (human) (UniProt P11309)           78
18  NC(=O)c1ccc(-c2ccc(Oc3cncc4sc(-c5nn[nH]n5)cc34)cc2)cc1  PIM1 (human) (UniProt P11309)           18
19  NCC(=O)Nc1ccc(-n2nc(C(F)(F)F)cc2-c2ccc3c(ccc4ccccc43)c2)cc1  PIM1 (human) (UniProt P11309)           94
20  CNc1nc(-c2ccc3c(N)n[nH]c3c2)cc(N2C[C@@H](C(=O)NC3CCCCC3)CC[C@H]2C)n1  PIM1 (human) (UniProt P11309)           93
21  Nc1cccc2c1CN(C1CCC(=O)NC1=O)C2=O (stereo not given)  PIM1 (human) (UniProt P11309)           87
22  N#Cc1c(O)c2c(-c3ccc(-c4ccccc4O)cc3)csc2[nH]c1=O  PIM1 (human) (UniProt P11309)           26
23  N#Cc1c(C2CCNCC2)cc(-c2c(O)cccc2OCC2CC2)nc1N  PIM1 (human) (UniProt P11309)           18
24  NC1(c2ccc(-c3nc4ccn5c(=O)[nH]nc5c4cc3-c3ccccc3)cc2)CCC1  PIM1 (human) (UniProt P11309)           68
25  CCCCCc1ccc(/C=C/[C@H](O)[C@@H](CO)NC)cc1  PIM1 (human) (UniProt P11309)           95
26  CCOC(=O)c1ccc(N2NC(=O)/C(=C/c3ccc([N+](=O)[O-])o3)C2=O)cc1  PIM1 (human) (UniProt P11309)          109
27       O=C1NC(=S)N[C@@H]1Cc1c[nH]c2ccccc12  PIM1 (human) (UniProt P11309)           93
28  NC(=O)c1cc(-c2ccnc(NC3CCCCC3)c2)nc(N2CCNCC2)c1  PIM1 (human) (UniProt P11309)           65
29  O=C(NOCC(O)CO)c1ccc(F)c(F)c1Nc1ccc(I)cc1Cl (stereo not given)  PIM1 (human) (UniProt P11309)           71
30  O=C(Nc1ccccc1-c1cn2c(CN3CCNCC3)csc2n1)c1cnc2ccccc2n1  PIM1 (human) (UniProt P11309)           10

* * *

- target of assay: GSK3B (human) (UniProt P49841)
- Sequence (P49841 whole entry, looked up): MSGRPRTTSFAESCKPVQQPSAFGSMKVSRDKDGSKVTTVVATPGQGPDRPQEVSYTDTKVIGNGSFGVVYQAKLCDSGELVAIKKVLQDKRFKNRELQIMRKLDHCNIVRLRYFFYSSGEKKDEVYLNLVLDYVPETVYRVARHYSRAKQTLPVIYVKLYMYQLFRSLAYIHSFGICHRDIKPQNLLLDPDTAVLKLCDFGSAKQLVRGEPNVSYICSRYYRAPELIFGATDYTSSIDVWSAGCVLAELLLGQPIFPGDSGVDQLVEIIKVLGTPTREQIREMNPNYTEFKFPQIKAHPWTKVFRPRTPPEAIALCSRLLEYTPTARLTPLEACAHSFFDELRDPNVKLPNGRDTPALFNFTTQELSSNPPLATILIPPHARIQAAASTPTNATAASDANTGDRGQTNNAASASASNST
- assay overview: radiometric filter-binding kinase assay
- condition summary: compound 1.0 µM
Catalogue of residual activity values
test readout: residual activity (%)

> print(dat)
                               smiles.input                 target.of.assay  test.result
1  CN(C)C/C=C/C(=O)Nc1cccc(C(=O)Nc2ccc(Nc3nccc(-c4cccnc4)n3)cc2)c1  GSK3B (human) (UniProt P49841)           56
2    CN1C(=O)[C@@H](Cc2c[nH]c3ccccc23)NC1=S  GSK3B (human) (UniProt P49841)          110
3  N#Cc1c(C2CCNCC2)cc(-c2c(O)cccc2OCC2CC2)nc1N  GSK3B (human) (UniProt P49841)           80
4  COc1cc(C(=O)N2CCOCC2)c(F)cc1Nc1ncc(C(F)(F)F)c(NC2CC2)n1  GSK3B (human) (UniProt P49841)           73

* * *

Catalogue of residual activity values
- target of assay: MAPK10 (human)
- assay overview: radiometric filter-binding kinase assay
- condition summary: compound 1.0 µM
test readout: residual activity (%)

> print(dat)
                               smiles.input  measure.unit  test.result
1  CCCCCc1ccc(/C=C/[C@H](O)[C@@H](CO)NC)cc1             %          103
2  NC1(c2ccc(-c3nc4ccn5c(=O)[nH]nc5c4cc3-c3ccccc3)cc2)CCC1             %           91
3  N#Cc1c(C2CCNCC2)cc(-c2c(O)cccc2OCC2CC2)nc1N             %           73

* * *

- target of assay: DAPK1 (human)
- assay overview: radiometric filter-binding kinase assay
- condition summary: compound 1.0 µM

compound	residual activity (%)
CCCCCc1ccc(/C=C/[C@H](O)[C@@H](CO)NC)cc1	101
C=CC(=O)N1CCC[C@@H](n2nc(-c3ccc(Oc4ccccc4)cc3)c3c(N)ncnc32)C1	95
NCC(=O)Nc1ccc(-n2nc(C(F)(F)F)cc2-c2ccc3c(ccc4ccccc43)c2)cc1	95
Cc1cc(NC(=O)c2cccc(NC(=O)/C=C/CN(C)C)c2)ccc1Nc1nccc(-c2cccnc2)n1	90
CCn1c(-c2nonc2N)nc2cncc(CNC3CCNCC3)c21	84
CN(C)C/C=C/C(=O)Nc1cccc(C(=O)Nc2ccc(Nc3nccc(-c4cccnc4)n3)cc2)c1	83
Oc1ccc2ccccc2c1SSc1c(O)ccc2ccccc12	101
NC(=O)c1c(NC(=O)C2CC2)sc2c1CCCC2	102
C=C1C(=O)OC2C1CC/C(C)=C/CCC1(C)OC21 (stereo not drawn)	102
CCNc1nc(Nc2cc(F)c(C(=O)N3CCOCC3)cc2OC)ncc1C(F)(F)F	43
NC(=O)c1ccc(-c2ccc(Oc3cncc4sc(-c5nn[nH]n5)cc34)cc2)cc1	88
Cc1ccc(=O)n(-c2ccccc2)c1	112
O=C(NOCC(O)CO)c1ccc(F)c(F)c1Nc1ccc(I)cc1Cl (stereo not drawn)	97
O=C(N[C@@H](COc1ccc2[nH]c(=O)[nH]c2c1)c1ccccc1)c1cccn(Cc2ccc(F)c(F)c2)c1=O	113
Cc1ccc(-c2ccc3c(ccc4sc5c(c43)NC[C@@H](C)NC5=O)n2)cn1	62
O=c1c(O)c(-c2ccc(O)c(O)c2)oc2cc(O)c(O)c(O)c12	95
COc1cc(C(=O)N2CCOCC2)c(F)cc1Nc1ncc(C(F)(F)F)c(NC2CC2)n1	53
CC1=C(CO)C(=O)O[C@@H]([C@@H](C)[C@H]2CC[C@H]3[C@@H]4C[C@H]5O[C@]56[C@@H](O)C=CC(=O)[C@]6(C)C4CC[C@]23C)C1 (stereo partly drawn)	95
NS(=O)(=O)OC[C@@H]1C[C@@H](n2ccc3c(N[C@H]4CCc5ccccc54)ncnc32)C[C@@H]1O	110
NC(=O)c1cc(-c2ccnc(NC3CCCCC3)c2)nc(N2CCNCC2)c1	93
NC1(c2ccc(-c3nc4ccn5c(=O)[nH]nc5c4cc3-c3ccccc3)cc2)CCC1	90
COc1cc2ncn(-c3cc(OCc4ccccc4S(C)(=O)=O)c(C#N)s3)c2cc1OC	54
COc1ccc(-n2ncc3cnc(Nc4cc(OC)c(OC)c(OCCCN5CCN(C)CC5)c4)nc32)cc1	15
COc1cc(O)c2c(c1)[C@H]1OC1C[C@H](O)[C@H](O)C(=O)/C=C\C[C@H](C)OC2=O (stereo partly drawn)	96
c1ccc2c(-c3cnn4cc(-c5ccc(N6CCNCC6)cc5)cnc34)ccnc2c1	91
O=C(NCCCNc1nc(Nc2cccc(CN3CCOCC3)c2)ncc1C1CC1)C1CCC1	72
Cc1nc(-c2ccc(OCC(C)C)c(C#N)c2)sc1C(=O)O	85
Cc1cccc(-c2nn(C(=S)Nc3ccccc3)cc2-c2ccnc3ccccc23)n1	90
NC(=O)c1cc2c(-c3cccc(-c4ccccc4)c3)cnc(N)c2s1	40
CC(C)(C#N)c1ccc(N2C(=O)OCc3cnc4ccc(-c5cnc6ccccc6c5)cc4c32)cc1	84
O=C(Nc1nc2cc(C(F)(F)F)cc(NC3CC3)n2n1)c1cccnc1	95
CNc1nc(-c2ccc3c(N)n[nH]c3c2)cc(N2C[C@@H](C(=O)NC3CCCCC3)CC[C@H]2C)n1	35
COc1ccc(N(C(=O)Nc2c(C)cccc2C)c2cc(Nc3ccc(N4CCN(C)CC4)cc3)ncn2)c(OC)c1	96
